biological target: gp120 of viral strain VI829 (HIV, strain VI829); assay: cell-based or functional assay
*1 amine or outer side, *2 acyl side, *3 side chain or, on linkers, in order; H or OH if unused. [ ]: non-standard residue; d: D form. U1 = 4-cyclohexylmethoxy-L-phenylalanine, O=C([C@H](Cc1ccc(OCC2CCCCC2)cc1)N[*:1])[*:2]; Bip = N[C@@H](Cc1ccc(-c2ccccc2)cc1)C(=O)O; Tpa = thiopropionic acid
assay_metric: EC50 (antiviral activity, TZM-bl cells, luciferase)

* mCD4.1-PS1 (N-terminal gamma-aminobutyric acid (gammaAbu) acylated with 3-thiopropionyl (from SATP); all six Tyr are sulfotyrosine (YSO3); N-terminal Tpa (thiopropionic acid); Bip at position 23; C-terminal …; Lys5 N-epsilon carries the PEO2-maleimide linker bound to the thiol of the PS1 chain) peptide 1: NLHKCQLRCSSLGLLGRCAGSFCACV peptide 2: SYDYSYDYSYDYS | 16 nM
* Tpa-NLHKCQLRCSSLGLLGRCAGS[Bip]CACV-NH2 (disulfide (positions not given here); also: three disulphide bridges, pairing not given here) [mCD4.1] | > 10000 nM
* Tpa-NLHKCQLRCRSLGLLGRCA[dP]T[U1]CACV-NH2 (disulfide (positions not given here)) [mCD4.3] | 221 nM
